Taken from ChEMBL document CHEMBL1157539.

Tested on: Plasmodium falciparum
Assay: GSK_TCMDC: Inhibition of Plasmodium falciparum 3D7 in whole red blood cells, using parasite LDH activity as an index of growth. Test compounds present at 2uM
Assay type: functional
Observed property: Inhibition (%)

* CC1CN(Cc2cccc(C#N)c2)CCN1c1ccc(NC(=O)c2cccs2)cc1.O=C(O)C(F)(F)F (configuration not stated) | 94
* CCn1ncc2c(NC3CCOCC3)c(CNC(=O)c3ccnn3C)c(C)nc21 | 98
* COC(=O)c1ccc2nc(-c3ccc(/C=C/C(=O)NCc4ccc(Cl)c(Cl)c4)cc3)[nH]c2c1 | 81
* Cc1cc(NC(=O)Nc2ccc3nc(C)oc3c2)c2cc(Cl)ccc2n1 | 100
* CC(=O)Nc1cccc(-c2cn(-c3ccc(OCc4cccc(F)c4)c(Cl)c3)c3ncncc23)c1 | 100
* COc1cc(CNCCCNc2nc3ncccc3[nH]2)c2[nH]cc(Br)c2c1 | 92
* CN1CCCC1CCCOC(=O)c1ccc(N)cc1 (configuration not stated) | 100
* CC(C)(CN)c1nc(-c2ccc(Cl)c(O)c2)c(-c2ccncc2)[nH]1.Cl | 97
* CCCCCn1c(Sc2ccc(C#N)c([N+](=O)[O-])c2)nnc1-c1ccccc1 | 93
* O=C(Nc1cccc(C(F)(F)F)c1)NC1CCN(c2ccnc3cc(Cl)ccc23)C1.O=C(O)C(F)(F)F (configuration not stated) | 100
* COc1cc2nc(Nc3ccc(Oc4ccccc4)cc3)nc(Nc3ccc(Oc4ccccc4)cc3)c2cc1OC | 95
* COc1ccccc1C(=O)Nc1ccc(Nc2nc(C)cc(N3CCOCC3)n2)cc1 | 98
* N#Cc1ccc(-c2ccc(C(=O)NCCCCN3CCC(c4ccncc4)CC3)cc2)cc1 | 94
* COc1cccc(-c2ccc(C(=O)NC3CCN(Cc4ccc(C(C)(C)C)cc4)CC3)s2)c1.O=C(O)C(F)(F)F | 85
* Cc1cccc2nc(-c3cccc(-c4cccc(C(=O)NCc5nccn5C)c4)c3)[nH]c12 | 99
* CCOC(=O)c1ccc(N=C2SC(=Cc3cc(Br)ccc3O)C(=O)N2C)cc1 | 99
* Cc1ccc(NC(=O)Nc2ccc(S(=O)(=O)c3ccc(NC(=O)Nc4ccc(C)c(Cl)c4)cc3)cc2)cc1Cl | 99
* O=C(/C=C/c1ccc(Cl)c(Cl)c1)NCCCCCCN1CCCN(C(=O)Nc2cccc(C(F)(F)F)c2)CC1 | 95
* Cc1nnc(-c2cccc(Nc3ccnc4cc(-c5nccs5)ccc34)c2)o1.Cl | 95
* Cc1ccc(Nc2nccc(NCC(O)c3ccc(C(F)(F)F)cc3)n2)cc1 (configuration not stated) | 100
* CCNc1cc(C(=O)N[C@@H](Cc2ccccc2)[C@H](O)CNCCC(C)(C)C)c(F)c(N2CCCCS2(=O)=O)c1.O=CO | 98
* Cn1c(-c2ccccc2)cc2c3c(=O)cc(C(F)(F)F)[nH]c3ccc21 | 95
* CCCCCCCCOc1c(OCC)cc(Cc2cnc(N)nc2N)cc1OCC | 80
* CC(C)(C)c1ccc(CN2CCCCC(NC(=O)c3cc(-c4ccccc4F)cs3)C2)cc1.O=C(O)C(F)(F)F (configuration not stated) | 100
* Cl.O=C(C=Cc1ccc(C(=O)Nc2ccc(C3=NCCN3)cc2)cc1)Nc1ccc(C2=NCCN2)cc1 | 97
* O=[N+]([O-])c1cccc(-c2nc(-c3ccc(Br)cc3)[nH]c2-c2ccc(Br)cc2)c1 | 99
* Clc1cccc(C=NN=c2cc[nH]c3ccccc23)c1 | 100
* CCCCOC(=O)c1ccc(Nc2cc(C)nc3ccc(OC)cc23)cc1 | 100
* CN(C)Cc1ccc(-c2ccc3ccnc(N)c3c2)cc1 | 100
* CC(C)c1ccc(NC(=O)c2cccc(CN3CCCN(Cc4cccc(C#N)c4)CC3)c2)cc1.O=C(O)C(F)(F)F | 93
* NC1CCN(Cc2cccc(-c3ccc(-c4nc5ccccc5[nH]4)cc3)c2)C1.O=C(O)C(F)(F)F (configuration not stated) | 100
* COc1ccc2nccc(N3CCC(CCNCc4ccc5c(n4)NC(=O)CS5)CC3)c2c1.Cl | 100
